Kindly state bioavailability for each of the entries shown.
assay: Oral bioavailability in rat at 10 mg/kg; assay type: ADME, organism-based; conditions: in vivo
Please give a number only; it is taken to be in %.

Prompt: Supply measured bioavailability of CCN1CCC(Nc2ccc3c(c2)C(=C(c2cc(F)cc(F)c2)c2nc(C)c[nH]2)C(=O)N3)CC1 (mixture of isomers) in your reply.
Completion: 59

Prompt: Given CCN1CCC(Nc2ccc3c(c2)C(=C(c2cccc(F)c2)c2ncc[nH]2)C(=O)N3)CC1 (mixture of isomers) , respond with its bioavailability.
Completion: 15

Prompt: In one line, give reported bioavailability of the entry CCN1CCC(Nc2ccc3c(c2)C(=C(c2ccccc2)c2nc4ccccc4[nH]2)C(=O)N3)CC1 (mixture of isomers) .
Completion: 37

Prompt: Complete the entry with bioavailability for CCN1CCC(Nc2ccc3c(c2)C(=C(c2nc(C)c[nH]2)c2ccccc2F)C(=O)N3)CC1 (mixture of isomers)
Completion: 25

Cited source: ChEMBL document CHEMBL2086224
